Numbers sourced from patent US20140213531A1.

molecular target: T1, Trypsin, Iodination grade, from human pancreas (human, UniProt P07477 24-247); assay: enzyme inhibition, pNA substrate
T1 construct: purified natural enzyme, bought
Bridges are numbered along the chain shown (N, C = ends). [ ]: non-standard residue; d: D form. Nle = CCCC[C@H](N)C(=O)O
The reader will find reported % inhibition at 100 µM values listed item by item below.
Number in %, nothing else.

// worked examples, % inhibition at 100 µM included
cyclo([Nle]CAASIPPQCY[dP]P) (disulfide 2-10, also called Ex. 86) [Example 86]: 0
XCTASIPPQCY (HELM PEPTIDE1{[Nle].C.T.A.S.I.P.P.Q.C.Y.[dP].F}$PEPTIDE1,PEPTIDE1,2:R3-10:R3|PEPTIDE1,PEPTIDE1,1:R1-13:R2$$$V2.0; SMILES CCCC[C@@H]1NC(=O)[C@H](Cc2ccccc2)NC(=O)[C@H]2CCCN2C(=O)[C@H](Cc2ccc(O)cc2)NC(=O)[C@@H]2CSSC[C@H](NC1=O)C(=O)N[C@@H]([C@@H](C)O)C(=O)N[C@@H](C)C(=O)N[C@@H](CO)C(=O)N[C@@H]([C@@H](C)CC)C(=O)N1CCC[C@H]1C(=O)N1CCC[C@H]1C(=O)N[C@@H](CCC(N)=O)C(=O)N2, also called Ex. 167) [Example 167]: 19

Turning to the following binder.
Name the recorded % inhibition at 100 µM for XQTASIPPQTY (HELM PEPTIDE1{[CCCCCCCC[C@H](N[*:1])C(=O)[*:2]].Q.T.A.S.I.P.P.Q.T.Y.[dP].P}$PEPTIDE1,PEPTIDE1,1:R1-13:R2$$$V2.0; SMILES CCCCCCCC[C@@H]1NC(=O)[C@@H]2CCCN2C(=O)[C@H]2CCCN2C(=O)[C@H](Cc2ccc(O)cc2)NC(=O)[C@H]([C@@H](C)O)NC(=O)[C@H](CCC(N)=O)NC(=O)[C@@H]2CCCN2C(=O)[C@@H]2CCCN2C(=O)[C@H]([C@@H](C)CC)NC(=O)[C@H](CO)NC(=O)[C@H](C)NC(=O)[C@H]([C@@H](C)O)NC(=O)[C@H](CCC(N)=O)NC1=O) [Example 154] .
0
